Study system: NOD2 (Homo sapiens)
Construct: host or cells: HEK-Blue NOD2 cells (HEK293-derived)
Sequence (Q9HC29 whole entry): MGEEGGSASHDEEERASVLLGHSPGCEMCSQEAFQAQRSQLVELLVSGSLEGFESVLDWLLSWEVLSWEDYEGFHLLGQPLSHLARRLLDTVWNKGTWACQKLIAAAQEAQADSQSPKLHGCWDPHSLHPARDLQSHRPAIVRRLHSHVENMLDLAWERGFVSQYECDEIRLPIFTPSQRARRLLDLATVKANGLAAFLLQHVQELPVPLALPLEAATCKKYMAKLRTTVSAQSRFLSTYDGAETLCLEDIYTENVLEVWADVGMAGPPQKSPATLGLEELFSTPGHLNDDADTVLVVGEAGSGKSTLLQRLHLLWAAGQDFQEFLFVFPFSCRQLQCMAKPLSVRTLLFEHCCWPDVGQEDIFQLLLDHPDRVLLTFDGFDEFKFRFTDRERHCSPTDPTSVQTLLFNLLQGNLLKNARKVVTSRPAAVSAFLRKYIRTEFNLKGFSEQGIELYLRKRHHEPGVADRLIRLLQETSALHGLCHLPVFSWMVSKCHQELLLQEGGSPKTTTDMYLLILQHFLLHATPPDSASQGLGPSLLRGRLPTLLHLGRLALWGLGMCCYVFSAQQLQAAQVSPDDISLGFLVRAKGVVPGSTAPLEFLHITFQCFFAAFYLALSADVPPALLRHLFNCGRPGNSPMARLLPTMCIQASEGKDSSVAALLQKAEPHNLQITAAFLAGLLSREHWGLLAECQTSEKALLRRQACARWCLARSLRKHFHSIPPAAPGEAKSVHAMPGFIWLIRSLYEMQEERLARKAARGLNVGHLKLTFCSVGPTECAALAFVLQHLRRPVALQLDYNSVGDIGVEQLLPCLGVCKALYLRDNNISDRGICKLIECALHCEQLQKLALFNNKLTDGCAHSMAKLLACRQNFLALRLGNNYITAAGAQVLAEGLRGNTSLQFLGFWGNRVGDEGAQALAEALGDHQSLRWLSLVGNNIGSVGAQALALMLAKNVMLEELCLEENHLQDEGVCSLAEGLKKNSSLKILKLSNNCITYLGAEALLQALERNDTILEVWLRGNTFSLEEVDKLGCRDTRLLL
Assay overview: HEK-Blue NOD2 cell line reporter assay (NF-κB-inducible SEAP)
Format: cell-based
Measurement context: HEK-Blue NOD2 cells, 2 μM, 18 h, NF-κB transcriptional (SEAP) activity relative to 0.1% DMSO, mean ± SEM
Observation type: NOD2 activity at 2 μM (fold increase)

Use the examples below as a reference point.
**Q:** Request the reported NOD2 activity at 2 μM (fold increase) associated with "CCCCCCCCCCCC(=O)Oc1ccc(/C=C/C(=O)NCC(=O)N[C@H](C(=O)N[C@H](CCC(=O)OC2CCCC2)C(=O)OC2CCCC2)C(C)C)cc1OC"
**A:** 2.56 ± 0.12 fold increase

**Q:** Request the reported NOD2 activity at 2 μM (fold increase) associated with "CCOC(=O)CC[C@@H](NC(=O)[C@@H](NC(=O)CNC(=O)CCCc1ccc(O)c(OC)c1)C(C)C)C(=O)OCC"
**A:** 1.73 ± 0.01 fold increase

Let us move to another entry and its NOD2 activity at 2 μM (fold increase).
**Q:** Request the reported NOD2 activity at 2 μM (fold increase) associated with "CCCCNC(=O)CC[C@@H](NC(=O)[C@@H](NC(=O)CNC(=O)/C=C/c1ccc(O)c(OC)c1)C(C)C)C(=O)NCCCC"
**A:** 1.30 ± 0.03 fold increase

* * *

Study system: NOD2 (Homo sapiens)
Construct: host or cells: HEK-Blue NOD2 cells (HEK293-derived)
Assay overview: HEK-Blue NOD2 cell line reporter assay (NF-κB-inducible SEAP)
Assay type: cell-based
Measurement context: HEK-Blue NOD2 cells, 18 h, 7 or 8 concentrations 1 nM to 20 μM, mean ± SEM
pEC50: −log10 of the molar value.
Quick rule: pEC50 of at least 6 means condition met, below that means condition not met.

Answered examples (4):
**Q:** Can CCOC(=O)CC[C@@H](NC(=O)[C@@H](NC(=O)CNC(=O)C1CC1c1ccc(O)c(OC)c1)C(C)C)C(=O)OCC (stereo partly drawn) [Compound 28] be said to have pEC50 at or above 6?
**A:** condition met

**Q:** Can CCOC(=O)CC[C@@H](NC(=O)[C@@H](NC(=O)CNC(=O)/C=C/c1ccc(O)c(O)c1)C(C)C)C(=O)OCC [Compound 21] be said to have pEC50 at or above 6?
**A:** condition not met

**Q:** Can CCCCCCCCCCCCCCCCCC(=O)NCCCC[C@H](NC(=O)CC[C@@H](NC(=O)[C@@H](NC(=O)CNC(=O)/C=C/c1ccc(O)c(OC)c1)C(C)C)C(=O)OCC)C(=O)OC [Compound 82] be said to have pEC50 at or above 6?
**A:** condition not met

**Q:** Can CCCCCCCCCCCCCCCCCC(=O)Oc1ccc(/C=C/C(=O)NCC(=O)N[C@H](C(=O)N[C@H](CCC(=O)OCC)C(=O)OCC)C(C)C)cc1OC [Compound 75] be said to have pEC50 at or above 6?
**A:** condition not met

New cases:
**Q:** Can CCOC(=O)CC[C@@H](NC(=O)[C@@H](NC(=O)CNC(=O)/C=C/c1ccc(OC(C)=O)c(OC)c1)C(C)C)C(=O)OCC [Compound 73] be said to have pEC50 at or above 6?
**A:** condition met

**Q:** Can CCCCCCCCCCCC(=O)Oc1ccc(/C=C/C(=O)NCC(=O)N[C@H](C(=O)N[C@H](CCC(=O)OC2CCCC2)C(=O)OC2CCCC2)C(C)C)cc1OC [Compound 77] be said to have pEC50 at or above 6?
**A:** condition met

**Q:** Can CCOC(=O)[C@@H](CCC(=O)N[C@@H](CCCCN)C(=O)OC)NC(=O)[C@@H](NC(=O)CNC(=O)/C=C/c1ccc(O)c(OC)c1)C(C)C [Compound 41] be said to have pEC50 at or above 6?
**A:** condition not met

* * *

System: human PBMCs
Assay overview: Cytokine release from peripheral blood mononuclear cells (cytometric bead array)
Format: cell-based
Measurement context: 2 μM, 18 h, without LPS
Observation type: Induction of cytokines IL-1β, IL-6, IL-8 and TNF-α, compound alone

**Q:** Request the reported Induction of cytokines IL-1β, IL-6, IL-8 and TNF-α, compound alone associated with CCCCCCCCCCCCCCCCCC(=O)Oc1ccc(/C=C/C(=O)NCC(=O)N[C@H](C(=O)N[C@H](CCC(=O)OCC)C(=O)OCC)C(C)C)cc1OC [Compound 75]
**A:** induced lower responses

**Q:** Request the reported Induction of cytokines IL-1β, IL-6, IL-8 and TNF-α, compound alone associated with CCCCCCCCCCCCCCCCCC(=O)Oc1ccc(/C=C/C(=O)NCC(=O)N[C@H](C(=O)N[C@H](CCC(=O)OCC)C(=O)OCC)[C@@H](C)O)cc1OC [Compound 81]
**A:** induced lower responses

* * *

Study system: NOD2 (Homo sapiens)
Construct: host or cells: HEK-Blue NOD2 cells (HEK293-derived)
Assay overview: HEK-Blue NOD2 cell line reporter assay (NF-κB-inducible SEAP)
Format: cell-based
Measurement context: HEK-Blue NOD2 cells, 18 h, 7 or 8 concentrations 1 nM to 20 μM, mean ± SEM
Observation type: pEC50
Note on units: pEC50 is unitless, being -log10 of a concentration expressed in mol/L.

**Q:** Request the reported pEC50 associated with CCOC(=O)CC[C@@H](NC(=O)[C@@H](NC(=O)CNC(=O)/C=C/c1ccc(OC)c(OC)c1)C(C)C)C(=O)OCC [Compound 20]
**A:** 6.12

**Q:** Request the reported pEC50 associated with CCOC(=O)CC[C@@H](NC(=O)[C@@H](NC(=O)CNC(=O)/C=C/c1ccc(C(C)C)cc1)C(C)C)C(=O)OCC [Compound 25]
**A:** 7.15

**Q:** Request the reported pEC50 associated with CCCCCCCCCCCC(=O)Oc1ccc(/C=C/C(=O)NCC(=O)N[C@H](C(=O)N[C@H](CCC(=O)OCC)C(=O)OCC)C(C)C)cc1OC [Compound 74]
**A:** 7.52

**Q:** Request the reported pEC50 associated with CCOC(=O)CC[C@@H](NC(=O)[C@@H](NC(=O)CNC(=O)CCc1ccc(O)c(OC)c1)C(C)C)C(=O)OCC [Compound 18]
**A:** 5.21

**Q:** Request the reported pEC50 associated with CCOC(=O)CC[C@@H](NC(=O)[C@H](COCc1ccccc1)NC(=O)CNC(=O)/C=C/c1ccc(O)c(OC)c1)C(=O)OCC [Compound 30]
**A:** 5.26

**Q:** Request the reported pEC50 associated with CCCCCCCCCCCCCCCCCC(=O)Oc1ccc(/C=C/C(=O)NCC(=O)N[C@H](C(=O)N[C@H](CCC(=O)OCC)C(=O)OCC)[C@@H](C)O)cc1OC [Compound 81]
**A:** 5.84

**Q:** Request the reported pEC50 associated with CCOC(=O)CC[C@@H](NC(=O)[C@@H](NC(=O)CNC(=O)/C=C/c1ccc([N+](=O)[O-])cc1)C(C)C)C(=O)OCC [Compound 26]
**A:** 7.31

* * *

Study system: NOD2 (Homo sapiens)
Construct: host or cells: HEK-Blue NOD2 cells (HEK293-derived)
Assay overview: HEK-Blue NOD2 cell line reporter assay (NF-κB-inducible SEAP)
Assay type: cell-based
Measurement context: HEK-Blue NOD2 cells, 18 h, 7 or 8 concentrations 1 nM to 20 μM, mean ± SEM
Observation type: EC50 (nM)
Field format: number, assumed nM, no unit text.

Use the examples below as a reference point.
**Q:** Request the reported EC50 associated with CCOC(=O)CC[C@@H](NC(=O)[C@@H](NC(=O)CNC(=O)/C=C/c1ccc(O)c(OC)c1)[C@@H](C)O)C(=O)OCC [Compound 32]
**A:** 12500

**Q:** Request the reported EC50 associated with CCOC(=O)CC[C@@H](NC(=O)[C@@H](NC(=O)CNC(=O)C1CC1c1ccc(OC)c(OC)c1)C(C)C)C(=O)OCC (some centres unmarked) [Compound 27]
**A:** 322

**Q:** Request the reported EC50 associated with CCOC(=O)CC[C@@H](NC(=O)[C@@H](NC(=O)CNC(=O)/C=C/c1ccc(N)cc1)C(C)C)C(=O)OCC [Compound 24]
**A:** 542

New cases:
**Q:** Request the reported EC50 associated with CCCCCCCCCCCCCCCCCC(=O)Oc1ccc(/C=C/C(=O)NCC(=O)N[C@H](C(=O)N[C@H](CCC(=O)OC2CCCC2)C(=O)OC2CCCC2)C(C)C)cc1OC [Compound 78]
**A:** 6160

**Q:** Request the reported EC50 associated with CC(=O)N[C@H]1C(O)O[C@H](CO)[C@@H](O)[C@@H]1O[C@H](C)C(=O)N[C@@H](C)C(=O)N[C@H](CCC(=O)O)C(N)=O (some centres unmarked) [MDP, muramyl dipeptide, reference compound]
**A:** 148
